B1: ZBTB22 (parent)
chain: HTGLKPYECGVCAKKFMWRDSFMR

Variants of: B1
Assay: protein stability index of a GFP-peptide fusion (GPS, HEK-293T) (PSI 1-6); higher = more stable;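 note: lentivirally expressed fusions sorted by FACS into six bins by GFP to DsRed ratio, PSI derived from sequencing read proportions per bin multiplied by bin number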
Conditions: c terminus: a fixed tail appended
Outcome: rule met for protein stability index of at least 2; rule not met for anything lower.

[[record]]
variant = "R24W"
class_assignment = "rule not met"

[[record]]
variant = "Y7N"
class_assignment = "rule met"

[[record]]
variant = "D20L"
class_assignment = "rule met"

[[record]]
variant = "E8P"
class_assignment = "rule met"

[[record]]
variant = "V11N"
class_assignment = "rule not met"

[[record]]
variant = "V11F"
class_assignment = "rule met"

[[record]]
variant = "Y7I"
class_assignment = "rule met"

[[record]]
variant = "C12D"
class_assignment = "rule not met"

[[record]]
variant = "M17L"
class_assignment = "rule met"

[[record]]
variant = "M23K"
class_assignment = "rule not met"

[[record]]
variant = "Y7C"
class_assignment = "rule met"

[[record]]
variant = "L4M"
class_assignment = "rule not met"

[[record]]
variant = "T2R"
class_assignment = "rule met"

[[record]]
variant = "G3S"
class_assignment = "rule met"

[[record]]
variant = "F16Y"
class_assignment = "rule met"

[[record]]
variant = "K5L"
class_assignment = "rule not met"

[[record]]
variant = "E8D"
class_assignment = "rule met"

[[record]]
variant = "K14C"
class_assignment = "rule met"

[[record]]
variant = "A13L"
class_assignment = "rule met"

[[record]]
variant = "M23W"
class_assignment = "rule met"

[[record]]
variant = "G10F"
class_assignment = "rule met"

[[record]]
variant = "R19W"
class_assignment = "rule not met"

[[record]]
variant = "R24S"
class_assignment = "rule met"

[[record]]
variant = "G10C"
class_assignment = "rule met"

[[record]]
variant = "C12I"
class_assignment = "rule met"

[[record]]
variant = "L4D"
class_assignment = "rule met"

[[record]]
variant = "T2K"
class_assignment = "rule met"

[[record]]
variant = "V11E"
class_assignment = "rule met"

[[record]]
variant = "F22L"
class_assignment = "rule met"

[[record]]
variant = "F16R"
class_assignment = "rule met"

[[record]]
variant = "C12Y"
class_assignment = "rule met"

[[record]]
variant = "R19C"
class_assignment = "rule not met"

[[record]]
variant = "S21E"
class_assignment = "rule not met"

[[record]]
variant = "A13Q"
class_assignment = "rule not met"

[[record]]
variant = "H1I"
class_assignment = "rule met"

[[record]]
variant = "C9R"
class_assignment = "rule not met"

[[record]]
variant = "E8L"
class_assignment = "rule not met"

[[record]]
variant = "H1Q"
class_assignment = "rule met"

[[record]]
variant = "F22K"
class_assignment = "rule met"

[[record]]
variant = "F16S"
class_assignment = "rule met"

[[record]]
variant = "S21R"
class_assignment = "rule not met"

[[record]]
variant = "P6R"
class_assignment = "rule met"

[[record]]
variant = "M23S"
class_assignment = "rule met"

[[record]]
variant = "R19Y"
class_assignment = "rule met"

[[record]]
variant = "W18V"
class_assignment = "rule met"

[[record]]
variant = "G3D"
class_assignment = "rule not met"

[[record]]
variant = "G10V"
class_assignment = "rule met"

[[record]]
variant = "Y7P"
class_assignment = "rule not met"

[[record]]
variant = "W18T"
class_assignment = "rule not met"

[[record]]
variant = "C12K"
class_assignment = "rule met"

[[record]]
variant = "P6S"
class_assignment = "rule met"

[[record]]
variant = "F16D"
class_assignment = "rule met"

[[record]]
variant = "P6T"
class_assignment = "rule met"

[[record]]
variant = "F22Q"
class_assignment = "rule met"

[[record]]
variant = "K15C"
class_assignment = "rule met"

[[record]]
variant = "M17C"
class_assignment = "rule met"

[[record]]
variant = "P6Q"
class_assignment = "rule met"

[[record]]
variant = "K15W"
class_assignment = "rule not met"

[[record]]
variant = "C9T"
class_assignment = "rule not met"

[[record]]
variant = "L4N"
class_assignment = "rule not met"

[[record]]
variant = "Y7F"
class_assignment = "rule met"

[[record]]
variant = "Y7V"
class_assignment = "rule not met"

[[record]]
variant = "F22P"
class_assignment = "rule met"

[[record]]
variant = "A13W"
class_assignment = "rule met"

[[record]]
variant = "W18E"
class_assignment = "rule met"

[[record]]
variant = "C9W"
class_assignment = "rule met"

[[record]]
variant = "G3L"
class_assignment = "rule not met"

[[record]]
variant = "L4E"
class_assignment = "rule not met"

[[record]]
variant = "V11L"
class_assignment = "rule not met"

[[record]]
variant = "M23E"
class_assignment = "rule met"

[[record]]
variant = "F16M"
class_assignment = "rule met"

[[record]]
variant = "S21N"
class_assignment = "rule not met"

[[record]]
variant = "Y7K"
class_assignment = "rule met"

[[record]]
variant = "H1C"
class_assignment = "rule not met"

[[record]]
variant = "R19L"
class_assignment = "rule met"

[[record]]
variant = "T2F"
class_assignment = "rule met"

[[record]]
variant = "R19H"
class_assignment = "rule met"

[[record]]
variant = "C12T"
class_assignment = "rule met"

[[record]]
variant = "M17Q"
class_assignment = "rule not met"

[[record]]
variant = "D20F"
class_assignment = "rule met"

[[record]]
variant = "G10S"
class_assignment = "rule not met"

[[record]]
variant = "G3C"
class_assignment = "rule met"

[[record]]
variant = "S21I"
class_assignment = "rule met"

[[record]]
variant = "G10E"
class_assignment = "rule met"

[[record]]
variant = "K15D"
class_assignment = "rule met"

